# experimentalDetails: Cytotoxicity against human MCF7 cells over expressing TDP1 assessed as reduction in viable cells after 72 hrs by MTT assay
# Assay type: cell-based
# recordedConditions: MCF7 cells overexpressing TDP1
# CC50 at 72 h per record follows
Expressed in µM, but write only the number.

Answered examples (5):
CC(=O)c1c(O)c(C)c(O)c2c1OC1=CC(=O)/C(=C(/C)Nc3ccc(Cl)cc3)C(=O)[C@]12C    16
CC(=O)c1c(O)c(C)c(O)c2c1OC1=CC(=O)/C(=C(/C)Nc3ccccc3)C(=O)[C@]12C    39
CC(=O)c1c(O)c(C)c(O)c2c1OC1=CC(=O)/C(=C(/C)NCCN(C)C)C(=O)C12C (stereo not drawn)    33
CC(=O)c1c(O)c(C)c(O)c2c1OC1=CC(=O)/C(=C(/C)NCCCN3CCOCC3)C(=O)C12C (stereo not drawn)    24
CC(=O)C1=C(O)C=C2Oc3c(C(C)=O)c(O)c(C)c(O)c3[C@@]2(C)C1=O [(+)-USNIC ACID]    52.3

Kindly consider the entry below.
Item: `CC(=O)c1c(O)c(C)c(O)c2c1OC1=CC(=O)/C(=C(/C)NCCc3ccc(O)cc3)C(=O)[C@@]12C` | CC50 at 72 h: 21.5

* * *

# system: Tyrosyl-DNA phosphodiesterase 1 (Homo sapiens, UniProt Q9NUW8)
# Sequence (Q9NUW8 whole entry): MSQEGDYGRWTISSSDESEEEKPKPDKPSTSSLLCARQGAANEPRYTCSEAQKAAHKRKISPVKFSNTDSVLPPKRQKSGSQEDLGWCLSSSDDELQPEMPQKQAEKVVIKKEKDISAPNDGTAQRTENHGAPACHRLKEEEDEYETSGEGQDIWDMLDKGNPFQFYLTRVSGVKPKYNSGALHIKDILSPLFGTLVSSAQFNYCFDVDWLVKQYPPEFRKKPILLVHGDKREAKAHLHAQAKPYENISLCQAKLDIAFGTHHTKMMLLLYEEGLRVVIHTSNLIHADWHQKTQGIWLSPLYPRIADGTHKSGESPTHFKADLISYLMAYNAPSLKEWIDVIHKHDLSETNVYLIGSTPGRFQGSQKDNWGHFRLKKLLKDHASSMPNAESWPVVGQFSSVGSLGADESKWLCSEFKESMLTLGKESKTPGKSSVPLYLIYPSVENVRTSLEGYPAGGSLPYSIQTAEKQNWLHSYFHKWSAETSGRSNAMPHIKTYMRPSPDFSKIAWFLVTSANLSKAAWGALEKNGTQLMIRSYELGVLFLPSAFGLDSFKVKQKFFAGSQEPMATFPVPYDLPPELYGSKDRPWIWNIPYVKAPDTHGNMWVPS
# experimentalDetails: Inhibition of recombinant TDP1 (unknown origin) assessed as reduction in BHQ1 excision from 3'-end of [32P]-labeled oligonucleotide substrate after 20 mins by polyacrilamide gel electrophoresis
recordedEndpoint: pIC50
pIC50 here: minus log base 10 of the concentration, concentration in moles per litre.

Item: `CC(=O)c1c(O)c(C)c(O)c2c1OC1=CC(=O)/C(=C(/C)Nc3ccc(Br)cc3)C(=O)[C@@]12C` | pIC50: 5.34

* * *

# system: Tyrosyl-DNA phosphodiesterase 1 (Homo sapiens, UniProt Q9NUW8)
# experimentalDetails: Inhibition of recombinant TDP1 (unknown origin) using 5'-(5,6 FAM-aac gtc agg gtc ttc c-BHQ1)-3' as substrate measured at 1 min interval by fluorimetric method
pIC50: −log10 of the molar value.
Class Criterion met: pIC50 at least 6. Class Criterion not met: pIC50 below 6.

Observe how each entry below is paired with its result.
CC(=O)c1c(O)c(C)c(O)c2c1OC1=CC(=O)/C(=C(/C)Nc3ccc(F)cc3)C(=O)[C@@]12C    Criterion not met
CC(=O)c1c(O)c(C)c(O)c2c1OC1=CC(=O)/C(=C(/C)NCCCc3cc(C(C)(C)C)c(O)c(C(C)(C)C)c3)C(=O)C12C (stereo not drawn)    Criterion met

Determine whether this compound has pIC50 no lower than 6: `CC(=O)c1c(O)c(C)c(O)c2c1OC1=CC(=O)/C(=C(/C)Nc3ccc(Cl)cc3)C(=O)[C@]12C`
Criterion not met

Determine whether this compound has pIC50 no lower than 6: CC(=O)c1c(O)c(C)c(O)c2c1OC1=CC(=O)/C(=C(/C)NCCCN3CCOCC3)C(=O)C12C (stereo not drawn)
Criterion not met

* * *

# system: Tyrosyl-DNA phosphodiesterase 1 (Homo sapiens)
# experimentalDetails: Inhibition of TDP1 in human MCF7 cells assessed as potentiation of camptothecin-induced cytotoxicity by measuring fold reduction in camptothecin CC50 at 0.5 uM after 72 hrs by MTT assay relative to camptothecin alone
# Type: cell-based
recordedEndpoint: fold change (FC)
Write the value as a bare number.

Answered examples (3):
CC(=O)c1c(O)c(C)c(O)c2c1OC1=CC(=O)/C(=C(/C)NCCc3cc(C(C)(C)C)c(O)c(C(C)(C)C)c3)C(=O)C12C (stereo not drawn)    1.7
CC(=O)c1c(O)c(C)c(O)c2c1OC1=CC(=O)/C(=C(/C)NCCCc3cc(C(C)(C)C)c(O)c(C(C)(C)C)c3)C(=O)C12C (stereo not drawn)    10.5
CC(=O)c1c(O)c(C)c(O)c2c1OC1=CC(=O)/C(=C(/C)Nc3ccc(F)cc3)C(=O)[C@]12C    1.6

// fold change (FC) (Tyrosyl-DNA phosphodiesterase 1 (Homo sapiens)) for `CC(=O)c1c(O)c(C)c(O)c2c1OC1=CC(=O)/C(=C(/C)Nc3ccc(F)cc3)C(=O)[C@@]12C` = 2.1

// fold change (FC) (Tyrosyl-DNA phosphodiesterase 1 (Homo sapiens)) for `CC(=O)c1c(O)c(C)c(O)c2c1OC1=CC(=O)/C(=C(/C)NCCc3ccc(O)cc3)C(=O)[C@@]12C` = 12.8

// fold change (FC) (Tyrosyl-DNA phosphodiesterase 1 (Homo sapiens)) for `CC(=O)c1c(O)c(C)c(O)c2c1OC1=CC(=O)/C(=C(/C)Nc3ccc(Br)cc3)C(=O)[C@]12C` = 0.92

// fold change (FC) (Tyrosyl-DNA phosphodiesterase 1 (Homo sapiens)) for CC(=O)c1c(O)c(C)c(O)c2c1OC1=CC(=O)/C(=C(/C)Nc3cccc(F)c3)C(=O)C12C (stereo not drawn) = 12.8

// fold change (FC) (Tyrosyl-DNA phosphodiesterase 1 (Homo sapiens)) for CC(=O)c1c(O)c(C)c(O)c2c1OC1=CC(=O)/C(=C(/C)Nc3cccc(Br)c3)C(=O)C12C (stereo not drawn) = 12.5

Origin of values: ChEMBL document CHEMBL3997772
